B1: library; a variant is named by its letters at N, in order (parent)
chain: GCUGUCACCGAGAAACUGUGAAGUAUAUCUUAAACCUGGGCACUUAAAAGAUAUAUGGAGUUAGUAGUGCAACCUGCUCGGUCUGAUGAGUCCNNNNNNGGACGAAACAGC

variants of: B1; experiment: normalized RNA/DNA level with ligand (relative to sTRSVctl = 100) (log10 (% of sTRSVctl)); HEK293T; ligand: cyclic di-GMP (c-di-GMP-II aptamer); ligand concentration (+) RNA-Seq: 1 mM; higher = less ribozyme self-cleavage, higher mRNA level; settings: reporter: mCherry (pCS4076), ligand present: yes
measurement kind: normalized RNA/DNA level with ligand (log10)
Give bare numbers.

These recorded examples may help you get a feel for the data.
GUAUAG; 1.74
AGCUGU; 1.8
GGUUAA; 1.67
ACGGUC; 1.77
ACACGU; 1.83

// each listed variant needs a value for normalized RNA/DNA level with ligand (log10)
1. CUACUC
2. CAAAUA
3. CCUAAA
4. GAUUUU
5. AAGACU
6. UGGCCU
7. UGAAUG
8. CCAGGG

Reply |
1: 1.83; 2: 1.46; 3: 1.61; 4: 1.81; 5: 1.84; 6: 1.97; 7: 1.86; 8: 1.77

// each listed variant needs a value for normalized RNA/DNA level with ligand (log10)
1. ACACUG
2. CAAUCA
3. CAAUAG
4. UCAGGC
5. AGCCUC
6. UCCAGU

Reply |
[1.68, 1.61, 1.83, 1.84, 1.87, 1.84]

// each listed variant needs a value for normalized RNA/DNA level with ligand (log10)
1. AAUGUC
2. UGCGCA
3. UGUGAA

Reply |
1: 1.84; 2: 1.86; 3: 1.85
